Each recorded value in this set is attributed to patent US20210070881A1.

# Study target: T1, human TfR (human, UniProt P02786 89-760, limits assumed)
# T1 construct: Protein coated on ELISA plates; also called human transferrin receptor protein 1
# T1 sequence (P02786 89-760 limits assumed): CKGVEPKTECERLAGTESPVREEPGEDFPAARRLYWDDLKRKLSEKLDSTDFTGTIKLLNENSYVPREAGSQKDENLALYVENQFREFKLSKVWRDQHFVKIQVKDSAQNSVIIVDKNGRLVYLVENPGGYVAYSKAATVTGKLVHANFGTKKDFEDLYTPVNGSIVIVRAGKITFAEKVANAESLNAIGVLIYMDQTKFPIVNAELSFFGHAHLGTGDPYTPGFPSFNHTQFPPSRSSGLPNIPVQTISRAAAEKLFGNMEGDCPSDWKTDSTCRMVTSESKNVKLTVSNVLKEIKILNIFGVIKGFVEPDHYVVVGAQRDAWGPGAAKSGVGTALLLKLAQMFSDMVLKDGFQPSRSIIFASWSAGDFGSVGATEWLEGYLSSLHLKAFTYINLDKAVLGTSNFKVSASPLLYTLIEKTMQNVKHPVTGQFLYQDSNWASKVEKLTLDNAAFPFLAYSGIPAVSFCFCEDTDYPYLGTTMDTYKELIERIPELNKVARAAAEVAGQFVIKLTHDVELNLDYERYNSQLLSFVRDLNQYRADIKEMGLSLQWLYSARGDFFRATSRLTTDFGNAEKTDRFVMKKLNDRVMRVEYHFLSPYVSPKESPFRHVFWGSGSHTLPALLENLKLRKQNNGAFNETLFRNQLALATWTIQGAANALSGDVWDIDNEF
# Test details: soft-randomization libraries selected on TfR
Assay readout: binding result

Binder | Assay readout | Result
Clone CH3C.21 (designed binder, modified Fc polypeptide) APELLGGPSVFLFPPKPKDTLMISRTPEVTCVVVDVSHEDPEVKFNWYVDGVEVHNAKTKPREEQYNSTYRVVSVLTVLHQDWLNGKEYKCKVSNKALPAPIEKTISKAKGQPREPQVYTLPPSRDELTKNQVSLTCLVKGFYPSDIAVEWESLGLVWVGYKTTPPVLDSDGSFFLYSKLTVPKSTWQQGWVFSCSVMHEALHNHYTQKSLSLSPGK | binding result | binds
Clone CH3C.17 (designed binder, modified Fc polypeptide) APELLGGPSVFLFPPKPKDTLMISRTPEVTCVVVDVSHEDPEVKFNWYVDGVEVHNAKTKPREEQYNSTYRVVSVLTVLHQDWLNGKEYKCKVSNKALPAPIEKTISKAKGQPREPQVYTLPPSRDELTKNQVSLTCLVKGFYPSDIAVEWESYGTVWSKYKTTPPVLDSDGSFFLYSKLTVSKSEWQQGFVFSCSVMHEALHNHYTQKSLSLSPGK | binding result | binds
Clone CH3C.34 (designed binder, modified Fc polypeptide) APELLGGPSVFLFPPKPKDTLMISRTPEVTCVVVDVSHEDPEVKFNWYVDGVEVHNAKTKPREEQYNSTYRVVSVLTVLHQDWLNGKEYKCKVSNKALPAPIEKTISKAKGQPREPQVYTLPPSRDELTKNQVSLTCLVKGFYPSDIAVEWESLGLVWVFSKTTPPVLDSDGSFFLYSKLTVPKSTWQQGWVFSCSVMHEALHNHYTQKSLSLSPGK | binding result | binds
